Tested on: HUVEC/MSC spheroids viability
Protocol notes: Human HUVEC/MSC cell line growth inhibition [KRAS2];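 also: percent of DMSO vehicle control luminescence so 100% = untreated viability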
Protocol conditions: second compound 0.1 µM; first compound 0.0949 µM; active compounds read low
# viability, T/C listing for each entry below
Measurement type: viability, T/C

INSERT INTO assay_data (compound, measurement_type, result) VALUES
  ('CC(=O)OC12COC1CC(O)C1(C)C(=O)C(O)C3=C(C)C(OC(=O)C(O)C(NC(=O)OC(C)(C)C)c4ccccc4)CC(O)(C(OC(=O)c4ccccc4)C21)C3(C)C (stereo not drawn) + CC1OCC2(CCN(c3cnc(Sc4ccnc(N)c4Cl)c(N)n3)CC2)C1N', 'viability, T/C', '71.4%'),
  ('CC1COCCN1c1cc(-c2ccnn2C)c2ccnc(-c3ccn[nH]3)c2n1 (stereo not drawn) + C=CC(=O)N1CCN(c2nc(=O)n(-c3c(C)ccnc3C(C)C)c3nc(-c4c(O)cccc4F)c(F)cc23)C(C)C1', 'viability, T/C', '96.6%'),
  ('CC(=O)OC12COC1CC(O)C1(C)C(=O)C(O)C3=C(C)C(OC(=O)C(O)C(NC(=O)OC(C)(C)C)c4ccccc4)CC(O)(C(OC(=O)c4ccccc4)C21)C3(C)C (stereo not drawn) + COc1cc2nc(C)nc(NC(C)c3cc(N)cc(C(F)(F)F)c3)c2cc1OC1CCOC1', 'viability, T/C', '54%'),
  ('CC1COCCN1c1cc(-c2ccnn2C)c2ccnc(-c3ccn[nH]3)c2n1 (stereo not drawn) + CC1OCC2(CCN(c3cnc(Sc4ccnc(N)c4Cl)c(N)n3)CC2)C1N', 'viability, T/C', '83.4%'),
  ('CC1COCCN1c1cc(-c2ccnn2C)c2ccnc(-c3ccn[nH]3)c2n1 (stereo not drawn) + CNCc1ccccc1-c1csc(C(C)Nc2nc(C)nc3cc(OC)c(OC)cc23)c1', 'viability, T/C', '105%'),
  ('CC(=O)OC12COC1CC(O)C1(C)C(=O)C(O)C3=C(C)C(OC(=O)C(O)C(NC(=O)OC(C)(C)C)c4ccccc4)CC(O)(C(OC(=O)c4ccccc4)C21)C3(C)C (stereo not drawn) + CNCc1ccccc1-c1csc(C(C)Nc2nc(C)nc3cc(OC)c(OC)cc23)c1', 'viability, T/C', '51.8%'),
  ('CC(=O)OC12COC1CC(O)C1(C)C(=O)C(O)C3=C(C)C(OC(=O)C(O)C(NC(=O)OC(C)(C)C)c4ccccc4)CC(O)(C(OC(=O)c4ccccc4)C21)C3(C)C (stereo not drawn) + C=CC(=O)N1CCN(c2nc(=O)n(-c3c(C)ccnc3C(C)C)c3nc(-c4c(O)cccc4F)c(F)cc23)C(C)C1', 'viability, T/C', '57.4%'),
  ('CC1COCCN1c1cc(-c2ccnn2C)c2ccnc(-c3ccn[nH]3)c2n1 (stereo not drawn) + COc1cc2nc(C)nc(NC(C)c3cc(N)cc(C(F)(F)F)c3)c2cc1OC1CCOC1', 'viability, T/C', '79.7%');

====

System: HUVEC/MSC spheroids viability
Protocol notes: Human HUVEC/MSC cell line growth inhibition [KRAS2];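 also: percent of DMSO vehicle control luminescence so 100% = untreated viability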
Protocol conditions: second compound 1 µM; first compound 0.0316 µM; active compounds read low
viability, T/C reference
Measurement type: viability, T/C (%)

INSERT INTO assay_data (molecule, tested_system, units_label, quantitative_result) VALUES
  ('CC1(C)CCC(CN2CCN(c3ccc(C(=O)NS(=O)(=O)c4ccc(NCC5CCOCC5)c([N+](=O)[O-])c4)c(Oc4cnc5[nH]ccc5c4)c3)CC2)=C(c2ccc(Cl)cc2)C1 + C=CC(=O)N1CCN(c2nc(=O)n(-c3c(C)ccnc3C(C)C)c3nc(-c4c(O)cccc4F)c(F)cc23)C(C)C1', 'HUVEC/MSC spheroids viability', '%', 144),
  ('CCN1CCN(Cc2ccc(Nc3ncc(F)c(-c4cc(F)c5nc(C)n(C(C)C)c5c4)n3)nc2)CC1 + COc1cc2nc(C)nc(NC(C)c3cc(N)cc(C(F)(F)F)c3)c2cc1OC1CCOC1', 'HUVEC/MSC spheroids viability', '%', 71.2);

These data points were gathered from PubChem BioAssay AID2060912.
